The origin of these recorded values is PubChem BioAssay AID743398.

Catalogue of activation values
- assayExplanation: Wnt/beta-catenin pathway activators, primary screen, cell-based, plate reader, single point (AID 743398);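 note: 0% = neutral control wells and 100% = positive control wells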
- measurementSetup: Wnt/beta-catenin reporter cell assay, activator, at 9.35 µM, active compounds read high
Hit rate of the full screen: of about 300,000 compounds, about 3,600 (1.2%) were called active. Only a selection was taken, and actives are over-represented in it overall.
Note: unit % is implicit; provide only the numeric part.

# example entries with known answers
compound: C=CCc1cccc2cc(C(=O)Nc3ccc(NC(C)=O)cc3)c(=O)oc12
reportedResult: 39.5

compound: Cc1cccc(OCC(=O)Nc2ccccc2F)c1
reportedResult: 22.2

compound: CCOC(=O)C1=C(C)NC(SC)=NC1c1ccccc1 (centres undefined)
reportedResult: -2.32

compound: Cc1ccc(C(=O)Nc2nc3ccc(Cl)cc3s2)o1
reportedResult: 36.2

compound: CCNc1nc(NCC)nc(N/N=C/c2ccc(O)c(OC)c2)n1
reportedResult: -3.98

// below: activation requested for another compound
Prompt line: Please indicate activation recorded for `O=C(Nc1ccccc1N1CCN(C(=O)c2ccccc2)CC1)c1ccc2c(c1)OCO2`
Response line: 1.55

* * *

- assayExplanation: Wnt/beta-catenin pathway activators, primary screen, cell-based, plate reader, single point (AID 743398);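 note: 0% = neutral control wells and 100% = positive control wells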
- measurementSetup: Wnt/beta-catenin reporter cell assay, activator, at 9.35 µM
Out of some 300,000 compounds screened, about 3,600 (1.2%) were called active. Cut-off read from the data, not from the text of the source: active = activation above about 30% (passing the limit was not always enough); inconclusive = no clear call, values can overlap the other calls. This is one part of a sample in which actives are shown more often than they occur.
Please answer using one outcome listed in active, inactive

Prompt line: Give the logged outcome of this assay for the following molecule: `CCOc1ccc2[nH]c(=S)sc2c1`
Response line: inactive

Prompt line: Give the logged outcome of this assay for the following molecule: `Cc1cc(C)nc(Nc2cc([N+](=O)[O-])ccc2C)n1`
Response line: inactive

Prompt line: Give the logged outcome of this assay for the following molecule: `CC(=O)c1cnc(-c2ccccc2)s1`
Response line: inactive

Prompt line: Give the logged outcome of this assay for the following molecule: `CCOC(=O)N(C)c1c(CC)nc2c(OCc3ccccc3C(=O)OC)cccn12`
Response line: inactive

Prompt line: Give the logged outcome of this assay for the following molecule: `CCOC(=O)C1=CC[C@@H](c2ccncc2)N(S(=O)(=O)c2ccc(C)cc2)C1`
Response line: inactive

Prompt line: Give the logged outcome of this assay for the following molecule: `Cc1ccc(-n2cc3ccc([N+](=O)[O-])cc3n2)cc1`
Response line: active

Prompt line: Give the logged outcome of this assay for the following molecule: `O=C(CSc1nc2ccccc2o1)N1c2ccccc2Sc2ccc(Cl)cc21`
Response line: inactive

Prompt line: Give the logged outcome of this assay for the following molecule: `Cc1ccc(-c2cn(S(=O)(=O)c3cccc([N+](=O)[O-])c3)nc2N)cc1`
Response line: inactive

Prompt line: Give the logged outcome of this assay for the following molecule: `COC(=O)[C@]12CCCCC=C1N(Cc1ccc(Cl)cc1Cl)C(=O)[C@H](CC(=O)NCc1cccc3ccccc13)C2`
Response line: inactive

Prompt line: Give the logged outcome of this assay for the following molecule: `CS(=O)(=O)N1CCC(C(=O)N2CCN(c3ccccc3)CC2)CC1`
Response line: inactive

Prompt line: Give the logged outcome of this assay for the following molecule: COc1ccc(NC(=O)C2Cc3c(-c4cccc(NC(C)=O)c4)ccnc3O2)cc1OC (stereo unspecified)
Response line: inactive

* * *

Catalogue of activation values
- assayExplanation: Wnt/beta-catenin pathway activators, primary screen, cell-based, plate reader, single point (AID 743398);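 note: 0% = neutral control wells and 100% = positive control wells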
- measurementSetup: Wnt/beta-catenin reporter cell assay, activator, at 9.35 µM, active compounds read high
Out of some 300,000 compounds screened, about 3,600 (1.2%) were called active. For the sample, actives were picked, then their nearest neighbours and some compounds at random.
Note: unit % is implicit; provide only the numeric part.

# example entries with known answers
compound: O=C(Nc1nnc(-c2ccccc2F)s1)c1ccccc1F
measurementUnit: %
activation: 32.6
//
compound: Clc1ccc(N/N=C/c2cccs2)nn1
measurementUnit: %
activation: 3.73
//
compound: CCOC(=O)[C@]12CCC=C1N(Cc1cccc3ccccc13)C(=O)[C@H](CC(=O)NCc1cccc(C(F)(F)F)c1)C2
measurementUnit: %
activation: -1.93
//
compound: COc1ccc(C2C(C#N)=C(N)N(c3ncn[nH]3)C3=C2C(=O)CCC3)cc1 (stereo unspecified)
measurementUnit: %
activation: 43.2
//
compound: Cc1sc2ncnc(N3CCC(C(=O)Nc4nc5ccc(Cl)cc5s4)CC3)c2c1C
measurementUnit: %
activation: 38.3
//
compound: CCOC(=O)[C@]12CCCC=C1N(CCC1=CCCCC1)C(=O)[C@H](CC(=O)NCCCOC)C2
measurementUnit: %
activation: -3.04
//
compound: Cc1cccc(C)c1NC(=O)CNC(=O)c1ccc2c(c1)OCCO2
measurementUnit: %
activation: 13.2
//
compound: CC(C)C[C@H](NC(=O)CC1CCCC1)C(=O)N1CCC[C@H]1C(=O)NCc1ccccc1
measurementUnit: %
activation: 3.46

Prompt line: Please indicate activation recorded for `Cc1cccc2cc3c(N)c(C(=O)N4CCCc5ccccc54)sc3nc12`
Response line: -13.9

Prompt line: Please indicate activation recorded for `Nc1ncnc2c1ncn2[C@@H]1O[C@H](C(=O)N[C@@H](CCc2ccccc2)C(=O)N2CCCN(Cc3cccs3)CC2)[C@@H](O)[C@H]1O`
Response line: 2.88

Prompt line: Please indicate activation recorded for `COc1cccc(NC(=O)CN(C)C(=O)CSC(=S)N2CCCC2)c1`
Response line: 0.702

Prompt line: Please indicate activation recorded for `COC(=O)[C@]12C[C@H](CC(=O)N3CCN(C(=O)C4CC4)CC3)C(=O)N(Cc3ccc4c(c3)OCO4)C1=C[C@H](C(C)(C)C)O[C@@H]2C`
Response line: -4.23

Prompt line: Please indicate activation recorded for CCCCCCN1CCN(C2CN(Cc3cn(Cc4ccc(F)cc4)nn3)S(=O)(=O)C2)CC1 (stereo unspecified)
Response line: -5.62

Prompt line: Please indicate activation recorded for Cc1ccc(-c2cnc(C(O)c3cc(Cl)cc(Cl)c3)[nH]2)cc1 (stereo unspecified)
Response line: -5.54

Prompt line: Please indicate activation recorded for `COC(=O)[C@]12C[C@H](CC(=O)NCCc3ccccc3OC)C(=O)N(Cc3ccccc3)C1=C[C@H](C(C)C)O[C@@H]2C1CC1`
Response line: -2.31
